The reported numbers originate from patent US11208386B2.

# Study system: PAD2 (Homo sapiens, UniProt Q9Y2J8)
# Construct: made in house
# Sequence (Q9Y2J8 whole entry): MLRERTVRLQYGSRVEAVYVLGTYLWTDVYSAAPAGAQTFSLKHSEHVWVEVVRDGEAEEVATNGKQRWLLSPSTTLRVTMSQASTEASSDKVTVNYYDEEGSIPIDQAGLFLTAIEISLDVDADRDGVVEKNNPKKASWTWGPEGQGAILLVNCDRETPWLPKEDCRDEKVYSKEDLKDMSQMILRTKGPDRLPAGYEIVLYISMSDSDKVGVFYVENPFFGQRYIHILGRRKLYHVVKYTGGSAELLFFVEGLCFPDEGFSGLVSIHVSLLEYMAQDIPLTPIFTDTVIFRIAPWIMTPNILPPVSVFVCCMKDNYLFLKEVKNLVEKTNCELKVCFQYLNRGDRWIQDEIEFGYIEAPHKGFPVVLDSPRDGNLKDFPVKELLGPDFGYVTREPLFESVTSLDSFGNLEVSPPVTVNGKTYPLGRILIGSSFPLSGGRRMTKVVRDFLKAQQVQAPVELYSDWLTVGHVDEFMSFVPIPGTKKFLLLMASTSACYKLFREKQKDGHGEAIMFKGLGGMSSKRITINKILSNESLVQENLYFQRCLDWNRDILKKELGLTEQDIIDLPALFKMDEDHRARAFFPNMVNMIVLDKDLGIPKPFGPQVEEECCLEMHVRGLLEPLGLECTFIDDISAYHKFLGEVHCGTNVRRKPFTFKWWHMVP
# Test: Inactivation kinetics, PAD2
# Assay type: biochemical
# Test settings: kinact/KI relative to least inhibited isozyme (1.0)
# label = Met if Fold PAD2 Selectivity >= 10 fold else Not met

CC(C)n1c([C@H](CCCNC(=N)CCl)NC(=O)c2ccc(-c3ccccc3)cc2)nc2ccccc21 [Compound 5l]    Not met

[in] Decide: is the reported value of Fold PAD2 Selectivity for CC(C)n1c([C@H](CCCNC(=N)CF)NC(=O)c2ccccc2C(=O)O)nc2ccccc21 [Compound 6g] equal to or greater than 10 fold?
[out] Met

[in] Identify whether the reported Fold PAD2 Selectivity of the following molecule is 10 fold or greater: CCn1c([C@H](CCCNC(=N)CCl)NC(=O)c2cccc3c2C(=O)NC3)nc2c(OC)cccc21 [Compound 7r]
[out] Met

[in] Dear colleague, could you confirm whether CC(C)n1c([C@H](CCCNC(=N)CCl)NC(=O)c2ccccc2C(=O)OC(C)(C)C)nc2ccccc21 [Compound 9f] has Fold PAD2 Selectivity at or above 10 fold?
[out] Met

[in] Answer whether Fold PAD2 Selectivity of COc1cccc2c1nc([C@H](CCCNC(=N)CF)NC(=O)c1cccc3c1C(=O)N(C(C)C)C3)n2C [Compound 8q] is greater than or equal to 10 fold.
[out] Met

[in] For this molecule, is measured Fold PAD2 Selectivity 10 fold or higher? COc1cccc2[nH]c([C@H](CCCNC(=N)CF)NC(=O)c3cccc4c3C(=O)NC4)nc12 [Compound 7i]
[out] Not met
